Kindly state IC50 for each of the entries shown.
measured target: Limk1 (Homo sapiens)
Sequence (P53667 285-638): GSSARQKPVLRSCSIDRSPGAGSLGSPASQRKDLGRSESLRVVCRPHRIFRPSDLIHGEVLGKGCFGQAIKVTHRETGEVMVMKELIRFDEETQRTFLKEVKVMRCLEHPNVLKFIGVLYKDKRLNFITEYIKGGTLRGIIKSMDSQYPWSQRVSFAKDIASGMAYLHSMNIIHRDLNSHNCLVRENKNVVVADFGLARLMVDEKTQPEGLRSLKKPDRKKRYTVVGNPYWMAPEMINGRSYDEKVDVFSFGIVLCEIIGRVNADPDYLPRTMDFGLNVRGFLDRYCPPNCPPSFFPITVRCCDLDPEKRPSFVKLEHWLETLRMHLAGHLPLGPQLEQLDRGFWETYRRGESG
assay info: Limk1 biochemical assay (Reaction Biology, 10-dose IC50)
Design: His; purchased Reaction Biology Corporation; host or cells: insect cells
stated conditions: Table 5; means of ≥2 experiments; read-out: Biochemical IC50 (nM) Limk1
Record the value in nM, omitting the unit from your answer.

[Q] Item Cc1[nH]c2ncnc(-c3ccc(NC(=O)N(CCN(C)C)c4ccc(Cl)cc4)c(F)c3)c2c1C [Compound 18w] has what recorded IC50?
[A] 19

[Q] Item COCCN(C(=O)Nc1ccc(-c2ncnc3[nH]c(C)c(C)c23)cc1F)c1ccc(Cl)cc1 [Compound 18x] has what recorded IC50?
[A] 8

---

assay info: Microsomal stability, human liver microsomes
Assay type: in vitro ADME
readout label: Microsomal Stability t1/2 (min) Human
Record the value in min, omitting the unit from your answer.

[Q] Item COc1cccc(N(CCO)C(=O)Nc2ccc(-c3ncnc4[nH]cc(C)c34)cc2)c1 [Compound 18m] has what recorded Microsomal Stability t1/2 (min) Human?
[A] 38

[Q] Item Cc1[nH]c2ncnc(-c3ccc(NC(=O)N(CCN(C)C)c4ccc(Cl)cc4)c(F)c3)c2c1C [Compound 18w] has what recorded Microsomal Stability t1/2 (min) Human?
[A] 19

[Q] Item Cc1[nH]c2ncnc(-c3ccc(NC(=O)Nc4cccc(C(=O)NC(C)C)c4)cc3)c2c1C [Compound 7i] has what recorded Microsomal Stability t1/2 (min) Human?
[A] 47

[Q] Item Cc1c[nH]c2ncnc(-c3ccc(NC(=O)N(CCO)c4ccc(F)cc4)cc3)c12 [Compound 18e] has what recorded Microsomal Stability t1/2 (min) Human?
[A] 44

[Q] Item COc1ccc(N(CCO)C(=O)Nc2ccc(-c3ncnc4[nH]cc(C)c34)cc2)cc1 [Compound 18n] has what recorded Microsomal Stability t1/2 (min) Human?
[A] 56

[Q] Item Cc1c[nH]c2ncnc(-c3ccc(NC(=O)Nc4cccc(C(=O)NC(C)C)c4)c(F)c3)c12 [Compound 7k] has what recorded Microsomal Stability t1/2 (min) Human?
[A] 27

---

measured target: P450 1A2 (Homo sapiens, UniProt P05177)
Sequence (P05177 whole entry): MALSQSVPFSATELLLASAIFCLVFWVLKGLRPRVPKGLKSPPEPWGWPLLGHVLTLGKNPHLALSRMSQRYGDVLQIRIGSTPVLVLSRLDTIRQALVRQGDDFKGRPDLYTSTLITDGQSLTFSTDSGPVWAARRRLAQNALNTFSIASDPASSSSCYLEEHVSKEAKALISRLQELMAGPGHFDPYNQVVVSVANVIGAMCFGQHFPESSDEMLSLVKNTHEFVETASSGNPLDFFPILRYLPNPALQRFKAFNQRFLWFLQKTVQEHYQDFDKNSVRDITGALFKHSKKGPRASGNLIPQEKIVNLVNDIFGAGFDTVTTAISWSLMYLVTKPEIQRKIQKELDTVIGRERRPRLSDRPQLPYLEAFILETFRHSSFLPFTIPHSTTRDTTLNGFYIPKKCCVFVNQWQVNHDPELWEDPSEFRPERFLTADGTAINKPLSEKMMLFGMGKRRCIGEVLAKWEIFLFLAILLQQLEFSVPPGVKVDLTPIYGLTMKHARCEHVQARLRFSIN
stated conditions: 10 μM
Could you please mark Yes for values of P450 % inh. at 10 μM 1A2 below 20% and No for values at or above it?

[Q] I wonder whether Cc1c[nH]c2ncnc(-c3ccc(NC(=O)N(CCO)c4ccc(F)cc4)cc3)c12 [Compound 18e] has P450 % inh. at 10 μM 1A2 below 20%. Can you tell?
[A] Yes

[Q] I wonder whether COCCN(C(=O)Nc1ccc(-c2ncnc3[nH]c(C)c(C)c23)cc1F)c1ccc(Cl)cc1 [Compound 18x] has P450 % inh. at 10 μM 1A2 below 20%. Can you tell?
[A] No

[Q] I wonder whether Cc1[nH]c2ncnc(-c3ccc(NC(=O)N(CCN(C)C)c4ccc(Cl)cc4)c(F)c3)c2c1C [Compound 18w] has P450 % inh. at 10 μM 1A2 below 20%. Can you tell?
[A] Yes

[Q] I wonder whether Cc1[nH]c2ncnc(-c3ccc(NC(=O)Nc4cccc(C(=O)NC(C)C)c4)cc3)c2c1C [Compound 7i] has P450 % inh. at 10 μM 1A2 below 20%. Can you tell?
[A] No

[Q] I wonder whether Cc1[nH]c2ncnc(-c3ccc(NC(=O)N(CCO)c4ccc(Cl)cc4)c(F)c3)c2c1C [Compound 18s] has P450 % inh. at 10 μM 1A2 below 20%. Can you tell?
[A] No

[Q] I wonder whether Cc1[nH]c2ncnc(-c3ccc(NC(=O)N(CCN)c4ccc(Cl)cc4)c(F)c3)c2c1C [Compound 18t] has P450 % inh. at 10 μM 1A2 below 20%. Can you tell?
[A] No

[Q] I wonder whether Cc1ccc(N(CCO)C(=O)Nc2ccc(-c3ncnc4[nH]cc(C)c34)cc2)cc1 [Compound 18k] has P450 % inh. at 10 μM 1A2 below 20%. Can you tell?
[A] Yes

[Q] I wonder whether Cc1c[nH]c2ncnc(-c3ccc(NC(=O)Nc4cccc(C(=O)NC(C)C)c4)c(F)c3)c12 [Compound 7k] has P450 % inh. at 10 μM 1A2 below 20%. Can you tell?
[A] No

---

Kindly state IC50 for each of the entries shown.
measured target: UniProt:P53667
assay info: Limk1 biochemical assay (Reaction Biology, 10-dose IC50)
Parameters: His; purchased Reaction Biology Corporation; host or cells: insect cells
stated conditions: Table 4; means of ≥2 experiments; read-out: IC50 (nM) Limk1
Please append the unit to your numeric answer.

[Q] Item Cc1cccc(N(CCO)C(=O)Nc2ccc(-c3ncnc4[nH]cc(C)c34)cc2)c1 [Compound 18j] has what recorded IC50?
[A] 151 nM

[Q] Item Cc1c[nH]c2ncnc(-c3ccc(NC(=O)N(CCO)c4ccccc4Cl)cc3)c12 [Compound 18f] has what recorded IC50?
[A] 58 nM

[Q] Item Cc1c[nH]c2ncnc(-c3ccc(NC(=O)N(CCN(C)C)c4ccc(Cl)cc4)cc3)c12 [Compound 18r] has what recorded IC50?
[A] 20 nM

[Q] Item Cc1c[nH]c2ncnc(-c3ccc(NC(=O)N(CCO)c4cccc(Cl)c4)cc3)c12 [Compound 18g] has what recorded IC50?
[A] 67 nM

---

Test system: cofilin phosphorylation in A7r5 cells
assay info: In-cell Western assay of cofilin phosphorylation in A7r5 cells
Type: cell-based
stated conditions: A7R5, read-out: Cofilin Phosphorylation In A7r5 Cells (IC50, nM)
readout label: IC50 (nM)
Record the value in nM, omitting the unit from your answer.

[Q] Item Cc1c[nH]c2ncnc(-c3ccc(NC(=O)N(CCO)c4cccc(Cl)c4)cc3)c12 [Compound 18g] has what recorded IC50?
[A] 372

[Q] Item Cc1c[nH]c2ncnc(-c3ccc(NC(=O)N(CCO)c4ccccc4Cl)cc3)c12 [Compound 18f] has what recorded IC50?
[A] 420

---

measured target: ROCK-II (Homo sapiens)
Sequence (O75116 whole entry, species assumed): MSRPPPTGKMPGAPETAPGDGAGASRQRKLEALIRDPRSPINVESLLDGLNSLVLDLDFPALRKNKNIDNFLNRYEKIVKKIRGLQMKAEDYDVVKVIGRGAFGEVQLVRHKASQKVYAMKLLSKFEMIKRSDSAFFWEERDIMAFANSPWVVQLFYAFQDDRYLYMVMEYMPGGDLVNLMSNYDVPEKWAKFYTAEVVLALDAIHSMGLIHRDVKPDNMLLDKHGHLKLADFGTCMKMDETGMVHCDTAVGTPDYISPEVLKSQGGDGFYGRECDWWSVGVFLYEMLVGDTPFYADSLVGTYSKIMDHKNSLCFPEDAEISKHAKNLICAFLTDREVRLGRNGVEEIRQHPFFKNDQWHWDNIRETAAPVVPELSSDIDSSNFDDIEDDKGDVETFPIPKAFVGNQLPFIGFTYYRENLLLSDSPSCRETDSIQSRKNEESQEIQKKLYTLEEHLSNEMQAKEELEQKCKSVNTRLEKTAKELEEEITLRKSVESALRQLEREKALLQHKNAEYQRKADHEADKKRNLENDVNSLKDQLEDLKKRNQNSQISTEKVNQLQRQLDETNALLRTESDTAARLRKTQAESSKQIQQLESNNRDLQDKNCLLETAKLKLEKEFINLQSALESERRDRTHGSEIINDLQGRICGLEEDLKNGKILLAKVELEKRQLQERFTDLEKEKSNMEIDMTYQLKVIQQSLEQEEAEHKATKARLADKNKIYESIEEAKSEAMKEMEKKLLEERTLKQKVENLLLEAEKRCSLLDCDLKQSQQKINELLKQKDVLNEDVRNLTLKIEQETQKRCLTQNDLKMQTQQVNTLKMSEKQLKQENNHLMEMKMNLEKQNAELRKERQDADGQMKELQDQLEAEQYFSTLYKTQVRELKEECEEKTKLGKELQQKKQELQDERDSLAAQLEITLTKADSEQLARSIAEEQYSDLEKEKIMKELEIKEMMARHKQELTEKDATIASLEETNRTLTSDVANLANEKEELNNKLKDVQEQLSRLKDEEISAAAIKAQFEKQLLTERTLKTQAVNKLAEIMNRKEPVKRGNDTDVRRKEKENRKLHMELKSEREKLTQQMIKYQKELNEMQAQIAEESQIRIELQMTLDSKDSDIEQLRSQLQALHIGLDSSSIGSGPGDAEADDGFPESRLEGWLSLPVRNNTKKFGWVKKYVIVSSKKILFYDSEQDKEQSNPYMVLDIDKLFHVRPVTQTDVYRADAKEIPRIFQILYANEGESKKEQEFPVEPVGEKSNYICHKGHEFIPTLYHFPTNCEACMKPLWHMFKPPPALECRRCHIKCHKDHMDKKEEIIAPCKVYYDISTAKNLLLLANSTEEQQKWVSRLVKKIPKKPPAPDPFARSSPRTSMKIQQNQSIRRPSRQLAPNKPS
assay info: ROCK-II biochemical counter-screen
stated conditions: Table 1; means of ≥2 experiments; read-out: IC50 (nM) ROCK-II
readout label: IC50

[Q] I'm curious: which IC50 was measured for CC(C)NC(=O)c1cccc(NC(=O)Nc2ccc(-c3ccncc3)cc2)c1 [Compound 7b] tested on ROCK-II (Homo sapiens)?
[A] 90 nM

[Q] I'm curious: which IC50 was measured for Cc1cc2c(-c3ccc(NC(=O)Nc4cccc(C(=O)NC(C)C)c4)cc3)ncnc2[nH]1 [Compound 7h] tested on ROCK-II (Homo sapiens)?
[A] > 10000 nM

[Q] I'm curious: which IC50 was measured for CC(C)NC(=O)c1cccc(NC(=O)Nc2ccc(-c3ncnc4[nH]ccc34)cc2)c1 [Compound 3] tested on ROCK-II (Homo sapiens)?
[A] 1360 nM

[Q] I'm curious: which IC50 was measured for Cc1[nH]c2ncnc(-c3ccc(NC(=O)Nc4cccc(C(=O)NC(C)C)c4)cc3)c2c1C [Compound 7i] tested on ROCK-II (Homo sapiens)?
[A] > 10000 nM

[Q] I'm curious: which IC50 was measured for CC(C)NC(=O)c1cccc(NC(=O)Nc2ccc(-c3cn[nH]c3)cc2)c1 [Compound 7a] tested on ROCK-II (Homo sapiens)?
[A] 45 nM

[Q] I'm curious: which IC50 was measured for CC(C)NC(=O)c1cccc(NC(=O)Nc2ccc(-c3ccnc(N)n3)cc2)c1 [Compound 7c] tested on ROCK-II (Homo sapiens)?
[A] 166 nM

---

System: HIV-1(NL4-3)
assay info: microbe, parasite or virus in culture
Assay type: cell-based
stated conditions: Human immunodeficiency virus 1, NL43, T-cell; read-out: half maximal inhibition concentration (IC50) for inhibiting HIV infection
readout label: pIC50
Here pIC50 is given on a logarithmic scale as minus log10 of the concentration in mol/L.

[Q] Item COC(=O)c1ccc2[nH]c(C3CCN(c4ncnc5[nH]cc(Cl)c45)CC3)nc2c1 has what recorded pIC50?
[A] 4.83

---

Kindly state AUC (iv) for each of the entries shown.
assay info: Plasma pharmacokinetics studies on rats
stated conditions: rats; iv dosing 1 mg/kg
Record the value in µM·h, omitting the unit from your answer.

[Q] Item Cc1c[nH]c2ncnc(-c3ccc(NC(=O)N(CCO)c4ccccc4)cc3)c12 [Compound 18b] has what recorded AUC (iv)?
[A] 8.4

[Q] Item Cc1c[nH]c2ncnc(-c3ccc(NC(=O)N(CCN(C)C)c4ccc(Cl)cc4)cc3)c12 [Compound 18r] has what recorded AUC (iv)?
[A] 0.6

[Q] Item Cc1ccc(N(CCO)C(=O)Nc2ccc(-c3ncnc4[nH]cc(C)c34)cc2)cc1 [Compound 18k] has what recorded AUC (iv)?
[A] 15.6

[Q] Item Cc1c[nH]c2ncnc(-c3ccc(NC(=O)Nc4ccccc4)cc3)c12 [Compound 10a] has what recorded AUC (iv)?
[A] 14.3

[Q] Item Cc1c[nH]c2ncnc(-c3ccc(NC(=O)Nc4cccc(C(=O)NC(C)C)c4)cc3)c12 [Compound 7g] has what recorded AUC (iv)?
[A] 4.3

[Q] Item Cc1c[nH]c2ncnc(-c3ccc(NC(=O)N(CCO)c4ccc(Cl)cc4)cc3)c12 [Compound 18h] has what recorded AUC (iv)?
[A] 13.2
